Hello, the source for this data is patent US20200230168, in case you need it.

// values below are reported binding signal
MEASUREMENT TARGET: hSSB1 (Homo sapiens, UniProt Q9BQ15 Q9BQ15:1-211)
Sequence (Q9BQ15 whole entry, one chain of several): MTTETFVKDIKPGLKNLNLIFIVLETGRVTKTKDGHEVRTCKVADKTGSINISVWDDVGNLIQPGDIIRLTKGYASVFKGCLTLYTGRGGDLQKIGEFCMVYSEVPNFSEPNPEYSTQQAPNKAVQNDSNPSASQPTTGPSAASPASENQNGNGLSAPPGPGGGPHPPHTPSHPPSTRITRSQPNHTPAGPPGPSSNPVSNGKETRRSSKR
ASSAY TEXT: SPR
Express your answer in normalized Rmax, writing the number without its unit.

{"columns": ["BINDER", "QUANTITY", "READING"],
 "data": [
  ["GGGCCUCCCGCACUUGAGAU (ssRNA, 2'-OMe all, full PS) [DKLS679059 (SEQ 55)]", "binding signal", 0.85],
  ["CCUGUGUGCCCCUCUUCCCU (ssRNA, 2'-OMe all, full PS) [DKLS374580 (SEQ 58)]", "binding signal", 0.68]
]}

Entry under review: CAGAGGCAGCAGUACGACGG (ssRNA, 2'-OMe all, ZEN at both ends) [LSA_ATG ZEN (DKLS649218)] . Reported binding signal? 0.15

Entry under review: AGAGGCAGCAGUACGACGG (ssRNA, 2'-OMe all, full PS) [LSA_ATG 5' truncation 19 nt] . Reported binding signal? 1.02

Entry under review: GGCAGCAGUACGACGG (ssRNA, 2'-OMe all, full PS) [LSA_ATG 5' truncation 16 nt] . Reported binding signal? 0.64

Entry under review: UACCGCGUGCGACCCUCU (ssRNA, full PS) [DKLS371273 (SEQ 7)] . Reported binding signal? 1.05

Entry under review: CAGAGGCAGCAGUACG (ssRNA, 2'-OMe all, full PS) [LSA_ATG 3' truncation 16 nt] . Reported binding signal? 0.46

Entry under review: UGUCAUAUUCCUGGAUCCUU (ssRNA, 2'-OMe all, full PS) [DKLS684387 (SEQ 29)] . Reported binding signal? 1.38

Entry under review: GGCACGUCCGCCAGUCAUGU (ssRNA, 2'-OMe all, full PS) [DKLS656105 (SEQ 56)] . Reported binding signal? 0.73

Entry under review: UACCGCGUGCGACCCUCU (ssRNA, 2'-OMe all, full PS) [DKLS784557 (SEQ 10)] . Reported binding signal? 0.69
